Test system: ATP;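 note: ATP exposure 15 min at 22 °C before imaging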
Assay: switch fluorescence ratio, 500 uM ATP over buffer (Cy3 cluster intensity, sum of 5 cycles each) (fold (ratio)); higher = stronger signal-on switching upon ATP binding; sequences stand for … in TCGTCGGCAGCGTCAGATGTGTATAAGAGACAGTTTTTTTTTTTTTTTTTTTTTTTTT…TC
Conditions: aptamer strand: ATP DNA aptamer (quencher-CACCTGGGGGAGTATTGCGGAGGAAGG + anchor), 100 nM annealed; ATP concentration: 500 uM
switch fluorescence ratio listing for selected sequences.
Attribute Measured: switch fluorescence ratio

[
  {
    "Residues": "AATATTGTCG",
    "Target Entity": "ATP",
    "Attribute Measured": "switch fluorescence ratio",
    "Value Reported": 0.994
  },
  {
    "Residues": "AGATATCATT",
    "Target Entity": "ATP",
    "Attribute Measured": "switch fluorescence ratio",
    "Value Reported": 0.985
  },
  {
    "Residues": "GGGTGGTTAC",
    "Target Entity": "ATP",
    "Attribute Measured": "switch fluorescence ratio",
    "Value Reported": 0.99
  },
  {
    "Residues": "GAGGGTGTGG",
    "Target Entity": "ATP",
    "Attribute Measured": "switch fluorescence ratio",
    "Value Reported": 1.02
  },
  {
    "Residues": "TTATTGGGGC",
    "Target Entity": "ATP",
    "Attribute Measured": "switch fluorescence ratio",
    "Value Reported": 1.01
  },
  {
    "Residues": "CGACGATACG",
    "Target Entity": "ATP",
    "Attribute Measured": "switch fluorescence ratio",
    "Value Reported": 0.991
  },
  {
    "Residues": "TTTGTCCCGT",
    "Target Entity": "ATP",
    "Attribute Measured": "switch fluorescence ratio",
    "Value Reported": 0.98
  },
  {
    "Residues": "TCTATTGTAA",
    "Target Entity": "ATP",
    "Attribute Measured": "switch fluorescence ratio",
    "Value Reported": 0.991
  },
  {
    "Residues": "GGTTTAAGCA",
    "Target Entity": "ATP",
    "Attribute Measured": "switch fluorescence ratio",
    "Value Reported": 0.982
  },
  {
    "Residues": "AAGTTTATGG",
    "Target Entity": "ATP",
    "Attribute Measured": "switch fluorescence ratio",
    "Value Reported": 0.98
  },
  {
    "Residues": "TGCTGGGTTT",
    "Target Entity": "ATP",
    "Attribute Measured": "switch fluorescence ratio",
    "Value Reported": 0.998
  },
  {
    "Residues": "GAAAGTATGT",
    "Target Entity": "ATP",
    "Attribute Measured": "switch fluorescence ratio",
    "Value Reported": 1
  },
  {
    "Residues": "TTGGACAGGG",
    "Target Entity": "ATP",
    "Attribute Measured": "switch fluorescence ratio",
    "Value Reported": 1
  },
  {
    "Residues": "GGCTTACAGT",
    "Target Entity": "ATP",
    "Attribute Measured": "switch fluorescence ratio",
    "Value Reported": 0.994
  },
  {
    "Residues": "TAGAGGGGGC",
    "Target Entity": "ATP",
    "Attribute Measured": "switch fluorescence ratio",
    "Value Reported": 0.987
  },
  {
    "Residues": "CATTGTTGTT",
    "Target Entity": "ATP",
    "Attribute Measured": "switch fluorescence ratio",
    "Value Reported": 1.01
  },
  {
    "Residues": "TGGATATGAC",
    "Target Entity": "ATP",
    "Attribute Measured": "switch fluorescence ratio",
    "Value Reported": 1
  },
  {
    "Residues": "ACTTGTGCAG",
    "Target Entity": "ATP",
    "Attribute Measured": "switch fluorescence ratio",
    "Value Reported": 0.978
  },
  {
    "Residues": "TTATCTAAGT",
    "Target Entity": "ATP",
    "Attribute Measured": "switch fluorescence ratio",
    "Value Reported": 1
  },
  {
    "Residues": "GATTGTCTTA",
    "Target Entity": "ATP",
    "Attribute Measured": "switch fluorescence ratio",
    "Value Reported": 0.979
  },
  {
    "Residues": "ATTTTTACTT",
    "Target Entity": "ATP",
    "Attribute Measured": "switch fluorescence ratio",
    "Value Reported": 0.974
  },
  {
    "Residues": "CGGACGACGG",
    "Target Entity": "ATP",
    "Attribute Measured": "switch fluorescence ratio",
    "Value Reported": 1.01
  },
  {
    "Residues": "CAATTTTTCG",
    "Target Entity": "ATP",
    "Attribute Measured": "switch fluorescence ratio",
    "Value Reported": 1.02
  }
]
